src = patent US20070154449A1

Consider the following molecules; for each one, report its T1/2.
- Assay Notes: Intranasal PYY(3-36) pharmacokinetics in rabbits with various TJMPs (Example 10)
- Assay type: in vivo, New Zealand White rabbits
- Condition Notes: PYY(3-36) in plasma, 205 μg/kg intranasal with the named TJMP (concentration per Table 11, 50-1000 μM) or PBS; rabbit, mean
Number in min, nothing else.

Specify reported T1/2 for the molecule shown: CC[C@H](C)[C@H](NC(=O)[C@H](CCCCN)NC(=O)[C@@H](NC(=O)[C@H](CCC(N)=O)NC(=O)[C@@H](N)CCCNC(=N)N)[C@@H](C)CC)C(=O)N[C@@H](Cc1c[nH]c2ccccc12)C(=O)N[C@@H](Cc1ccccc1)C(=O)N[C@@H](CCC(N)=O)C(=O)N[C@@H](CC(N)=O)C(=O)N[C@@H](CCCNC(=N)N)C(=O)N[C@@H](CCCNC(=N)N)C(=O)N[C@@H](CCSC)C(=O)N[C@@H](CCCCN)C(=O)N[C@@H](Cc1c[nH]c2ccccc12)C(=O)N[C@@H](CCCCN)C(=O)N[C@@H](CCCCN)C(N)=O 29.5

Specify reported T1/2 for the molecule shown: CC(C)C[C@H](NC(=O)[C@H](C)NC(=O)[C@H](CCCCN)NC(=O)[C@H](CC(C)C)NC(=O)[C@H](C)NC(=O)[C@H](CC(C)C)NC(=O)[C@H](CCCCN)NC(=O)[C@H](CC(C)C)NC(=O)[C@H](C)NC(=O)[C@H](CC(C)C)NC(=O)[C@@H](N)CCCCN)C(=O)N[C@@H](CCCCN)C(=O)N[C@@H](C)C(=O)N[C@@H](C)C(=O)N[C@@H](CC(C)C)C(=O)N[C@@H](CCCCN)C(=O)N[C@@H](CC(C)C)C(=O)N[C@@H](C)C(N)=O 30.2
